Target: T1, K280-ac protein fragment (human)
T1 construct: also called mAC
T1 peptide: VQIINK(Ac)KLDLSN
Assay: ELISA on K280-ac coated at 250 ng/well, HRP anti-human IgG
Ends that are not written are not given here.
Quantity kind: Absorbance at 450nm at 0.01ug/well
Hey, just send me the number, nothing else.

# Binder, Absorbance at 450nm at 0.01ug/well
data = [
    ("ADEL-Y01h v09 antibody (antibody, V domains shown, Humanized antibody; It was detected with anti-human IgG; also called Y01h01v09) VH: EVTLKESGPTLVKPTQTLTLTCTVSGDSITSGYWNWIRQPPGKALEYLAYIRYSGRTYYNPSLKSRLTITRDTSKNQVVLTMTNMDPVDTATYYCASVYFTYWGQGTLVTVSS VL: EVVLTQSPGTLSLSPGERATLSCKSSQSLLDSDGKTYLNWYQQKPGQSPKRLISLVSKLDSGIPDRFSGSGSGTDFTLTISRLEPEDFAVYYCWQGSHFPYTFGQGTKLEIK", 0.251),
]

Query: Name the recorded Absorbance at 450nm at 0.01ug/well of the item ADEL-Y01h v04 antibody (antibody, V domains shown, Humanized antibody; It was detected with anti-human IgG; also called Y01h01v04) VH: EVQLQQSGPGLVKPSQTLSLTCAVSGDSITSGYWNWIRQSPSRGLEWLGYIRYSGRTYYNPSLKSRITINRDTSKNQFSLQLNSVTPEDTAVYYCASVYFTYWGQGTLVTVSS VL: DVVMTQSPLSLPVTLGQPASISCKSSQSLLDSDGKTYLNWFQQRPGQSPKRLISLVSKLDSGVPDRFSGSGSGTDFTLKISRVEAEDVGVYYCWQGSHFPYTFGQGTKLEIK in your answer.
Response: 0.354

Source listed as patent US20220204601A1.
